Entries and their growth
Test system: OVCAR-8 ovarian
Assay: NCI-60 one-dose screen, 48 h (100 = growth as untreated, 0 = no growth, -100 = all killed)
Details: 10 µM unless noted
About 83,000 compounds went through this panel and 20% of them were active in at least one assay; those are over-represented in the sample as a whole.
Express it in %; write the number only.

O=C(/C=C(/C=C/c1csc2ccccc12)OB(F)F)/C=C/c1csc2ccccc12: -9.55
NS(=O)(=O)c1ccc(CCN2C(=O)C=CC2=O)cc1: 104
COc1ccc2[nH]c(O)c(/C=c3/cc4c(c(-c5ccc(F)cc5)n3)=Nc3ccccc3-4)c2c1: 75.5
NS(=O)(=O)c1ccc(CCn2c(SCC(=O)c3ccc(Cl)cc3)nc3ccccc3c2=O)cc1: 107
Brc1ccc(Nc2csc(-c3ccccn3)n2)cc1: 98.6
CC(C)(C)c1ccc(NS(=O)(=O)c2ccc3nc(NC(=O)c4cnccn4)[nH]c3c2)cc1: 45.6

For reference, reported growth for "COC(=O)N[C@H]1CCc2c(Cl)c(OC)c(OC)c(OC)c2-c2ccc(SC)c(=O)cc21" stands at 15.4

For reference, reported growth for COc1ccc(C(=O)C2C(C#N)C(C#N)C3C=Cc4ccccc4N32)cc1 (stereo not given) stands at 27.6

For reference, reported growth for "O=Cc1cc2ccccc2nc1Oc1ccc(C(F)(F)F)cc1" stands at 91

For reference, reported growth for "N#C/C(=C\c1ccccn1)c1nc2cc(Cl)ccc2s1" stands at 73.1

---

Tested on: M14 melanoma
Assay: NCI-60 one-dose screen, 48 h (100 = growth as untreated, 0 = no growth, -100 = all killed)
Conditions: 10 µM unless noted
The panel holds about 83,000 compounds, 20% with a hit somewhere; the sample as a whole holds those more often.
reported property: growth (%)
Express it in %; write the number only.

Take a look at these entries with their results.
CCOC(=O)/C(C#N)=C1/NNC(=Nc2cccnc2)S1: 95.9
COC(=O)N[C@H]1CCc2c(Cl)c(OC)c(OC)c(OC)c2-c2ccc(SC)c(=O)cc21: 0.0864

For reference, reported growth for "COC(=O)C1=C(C(=O)ON)[C@@H]2C=C[C@@]1([C@@H](Cc1ccccc1)Nc1ccccc1)O2" stands at 95.3

For reference, reported growth for "O=S(=O)(NCCNc1nccc(-c2c(-c3cccc(O)c3)nc3occn23)n1)c1ccc(C(F)(F)F)cc1" stands at 38.9

For reference, reported growth for "COc1cc2c3c(c4c5ccccc5[nH]c4c2c(OC)c1OC)C(=O)N(CCN1CCOCC1)C3=O" stands at 76

For reference, reported growth for "O=C(N/N=C/c1cc2ccccc2n2nnnc12)Nc1ccccc1" stands at 102

For reference, reported growth for "CC(=O)Nc1ccc(-c2ccc3c(c2)NC(=O)/C3=C\c2ccc[nH]2)cc1" stands at 105

For reference, reported growth for "C=C1C(=O)O[C@H]2[C@H]1CC/C(CNC(=O)/C=C/c1cccc(OC)c1)=C\CC[C@@]1(C)O[C@@H]21" stands at -36.8

---

Tested on: NCI/ADR-RES ovarian
Assay: NCI-60 one-dose screen, 48 h (100 = growth as untreated, 0 = no growth, -100 = all killed)
Conditions: 10 µM unless noted
This is part of a sample that, as a whole, favours compounds with a hit. Of some 83,000 tested, about 20% had one in any assay.
Entries and their growth
Express it in %; write the number only.

Take a look at these entries with their results.
CCc1c(Cl)nc(N)nc1Nc1ccc(C)c(C)c1: 99.2
COc1cccc2c1c1nc3cc(C)c(C)cc3nc1n2CCN(C)C: 25.1
CC1(C)NCCC[C@]2(C)[C@H]3CC(=O)[C@H]4[C@@H]5C[C@](C)(CO)CC[C@]5(C)CC[C@@]4(C)[C@]3(C)CC[C@@H]12: 105
N#CC(C(=O)/C(=N/NC(=O)c1ccccc1O)C(C#N)c1ccccc1)c1ccccc1 (stereo not drawn): 44.5
Cc1cc2nc3c4cccc(O)c4n(CCN(C)C)c3nc2cc1C: 32.3
CC(C)=CCC[C@](C)(O)[C@H]1CC[C@]2(C)[C@@H]1CC[C@@H]1[C@@]3(C)C/C(=C/c4ccccc4)C(=O)C(C)(C)[C@@H]3CC[C@]12C: 100
O=C(CNCCN1CCOCC1)N1c2cccc3cccc(c23)N(C(=O)CNCCN2CCOCC2)C1c1cn(-c2ccccc2)nc1-c1cccc([N+](=O)[O-])c1: 87.7

Now turn to the next compound.
For reference, reported growth for Cc1ccc(C(=O)/C(=C\c2ccc([N+](=O)[O-])cc2)S(=O)Cc2ccc(Cl)cc2)cc1 (stereo not drawn) stands at 30.5

---

Test system: SNB-19 CNS
Assay: NCI-60 one-dose screen, 48 h (100 = growth as untreated, 0 = no growth, -100 = all killed)
Conditions: 10 µM unless noted
Compounds without any hit were thinned out: in the full panel of roughly 83,000, 20% have a hit. Calls of active or inactive are those of the source. The calls were made as follows: active = growth percent below 10; inactive = the rest.
reported property: growth

CN(C)CC(O)c1ccc(/C=C/c2ccc(Cl)cc2)cc1 (stereo unspecified): 32.1% (inactive)
O=C(c1nnc(Nc2ccccc2Br)o1)c1c[nH]c2ccccc12: 96.8% (inactive)
Oc1c(Cl)cc(Cl)c(Cl)c1CNCCNCc1c(O)c(Cl)cc(Cl)c1Cl: 15.9% (inactive)
Cc1ccc(S(=O)(=O)Nn2c3c(cc(-c4nc5ccccc5s4)c2=O)CCCCCC3)cc1: 99.2% (inactive)
N#C/C(=C\c1c(-c2ccccc2)[nH]c2ccccc12)C(=O)c1ccc(Cl)cc1: 55.3% (inactive)
N#C/C(=C\c1cccc(C#N)c1)c1ccccc1: 109% (inactive)
COc1ccccc1NC(=O)C1CC(c2ccc(F)cc2)=NO1 (stereo unspecified): 96.8% (inactive)
c1ccc2c(-c3nccs3)c[nH]c2c1: 98.1% (inactive)

For reference, reported growth for "CCCN1[C@@H]2CC[C@H]1/C(=C\c1ccc(OC)c(OC)c1)C(=O)/C2=C/c1ccc(OC)c(OC)c1" stands at 56.7% (inactive)

For reference, reported growth for "COc1c(Cl)c2c(c(OC)c1OC)-c1ccc(SC)c(=O)cc1[C@@H](NC(=O)OCC(F)(F)F)CC2" stands at 29.4% (inactive)

For reference, reported growth for "CN(C)CCC(=O)c1ccc([N+](=O)[O-])cc1" stands at 107% (inactive)

---

System: SF-539 CNS
Assay: NCI-60 one-dose screen, 48 h
Conditions: 10 µM unless noted
This is part of a sample that, as a whole, favours compounds with a hit. Of some 83,000 tested, about 20% had one in any assay. Activity calls are given as the source filed them. How the source made its calls: active means growth percent below 10; inactive means the rest.
Your reply should match one of these outcome classes. active, inactive

NS(=O)(=O)c1ccc(CCN2C(=O)c3cc(Cl)c(Cl)cc3C2=O)cc1: inactive
CCOC(=O)[C@@H](C)C[C@H](Cc1ccccc1)NC(=O)c1csc([C@@H](C[C@H](C(C)C)N(C)C(=O)[C@@H](NC(=O)[C@H]2C[C@H](O[Si](C)(C)C(C)(C)C)CCN2C)C(C)C)OC(C)=O)n1: active
C#CCNC(=O)[C@]1(C)CC[C@]2(C)CC[C@@H]3C(=CC[C@H]4[C@@]3(C)CC[C@H]3C(C)(C)C(=O)CC[C@]43C)[C@@H]2C1: inactive
Cc1ncc(C(=O)Nc2ccc(CN3CCN(C)CC3)c(C(F)(F)F)c2)cc1C#Cc1cnc(N)cc1C#N: active
CCCCCN1C=C/C(=C\C(=O)N(C)c2ccccc2Br)c2ccccc21: inactive
O=C(/C=C(O)/C=C/c1ccc(SC(F)(F)F)cc1)/C=C/c1ccc(SC(F)(F)F)cc1: inactive

Problem: What call does the record list for "Cc1nn(-c2ccccc2)c(Cl)c1/C=N\N=c1/sc2ccccc2n1C" ?
Result: inactive

Problem: What call does the record list for "COc1cccc(-c2nc3occn3c2-c2ccnc(NCCNS(=O)(=O)c3cccc4ccccc34)n2)c1" ?
Result: inactive

---

Tested on: HCT-15 colon
Assay: NCI-60 one-dose screen, 48 h (100 = growth as untreated, 0 = no growth, -100 = all killed)
Details: 10 µM unless noted
Compounds without any hit were thinned out: in the full panel of roughly 83,000, 20% have a hit. The source made the active and inactive calls. Rule for the calls: active = growth percent below 10; inactive = the rest.
Entries and their growth

CN1C(=O)NC(c2ccc3c(c2)OCO3)C=C1c1ccccc1 (configuration not stated): 77.8% (inactive)
Cn1nc(CC#N)c2c(=N)n(N)cnc21: 111% (inactive)
O=Cc1ccc(-c2cn3ccnc3c(-c3ccc4ncn(Cc5ccccc5)c4c3)n2)cc1: 50.9% (inactive)

For reference, reported growth for "C#Cc1cccc(NC(=O)c2cccc(NC(=O)CCl)c2)c1" stands at -63.4% [8.25 µM] (active)

---

Tested on: MOLT-4 leukemia
Test: NCI-60 one-dose screen, 48 h (100 = growth as untreated, 0 = no growth, -100 = all killed)
Conditions: 10 µM unless noted
About 83,000 compounds went through this panel and 20% of them were active in at least one assay; those are over-represented in the sample as a whole. The source made the active and inactive calls. How the source made its calls: active means growth percent below 10; inactive means the rest.
reported property: growth

Take a look at these entries with their results.
Cc1c(C(=O)NCCC(=O)NO)sc2ncnc(Nc3ccc(NC(=O)Nc4cccc(C(F)(F)F)c4)cc3)c12: 106% (inactive)
Cc1ccc(C(=O)/C(=C/c2ccc([N+](=O)[O-])cc2)SCc2ccc(Cl)cc2)cc1: 19.8% (inactive)
Oc1ccc(C(c2ccc(O)cc2)c2ccc(Br)cn2)cc1: 101% (inactive)
CCCCCC(=O)Oc1ccc(/C(=C(\C)c2ccccc2)c2ccc(OCCN3CCCCC3)cc2)cc1: 63.7% (inactive)

Now turn to the next compound.
With MOLT-4 leukemia as the test system, "CC(=O)Nc1ccc(-n2cnc3cc(-c4ccc(OCCN5CCCCC5)cc4)ccc32)cc1" showed growth of 73.1% (inactive)

Sourced from PubChem BioAssay (NCI)
